test protocol: In vitro inhibitory activity against platelet phosphodiesterase (PDE)
Rule for this label: 1 means IC50 is less than 100 nM; 0 means IC50 is at least 100 nM.

Query string: Is the reported IC50 for CN(C(=O)CCCOc1ccc2c(c1)CN1CC(=O)N(COC(=O)C(C)(C)C)C1=N2)C1CCCCC1 strictly below 100 nM?
Result string: 0

Query string: Is the reported IC50 for Br.CN(C(=O)CCCOc1ccc2c(c1)CN(CC(N)=O)C(N)=N2)C1CCCCC1 strictly below 100 nM?
Result string: 0

Query string: Is the reported IC50 for Br.CC(C)OC(=O)CN1Cc2cc(OCCCC(=O)N(C)C3CCCCC3)ccc2N=C1N strictly below 100 nM?
Result string: 1

Query string: Is the reported IC50 for CCOC(=O)C(CCOc1ccc2c(c1)CN1CC(=O)NC1=N2)C(=O)N(C)C1CCCCC1 (stereo unspecified) strictly below 100 nM?
Result string: 1

Query string: Is the reported IC50 for Br.CN(C(=O)CCCOc1ccc2c(c1)CN(CC(=O)OCC(C)(C)C)C(N)=N2)C1CCCCC1 strictly below 100 nM?
Result string: 1

Query string: Is the reported IC50 for CN(C(=O)CCCOc1ccc2c(c1)CN(CC(N)=O)C(=O)N2)C1CCCCC1 strictly below 100 nM?
Result string: 0

Query string: Is the reported IC50 for Br.CN(C(=O)CCCOc1ccc2c(c1)CN(CC(=O)N1CCOCC1)C(N)=N2)C1CCCCC1 strictly below 100 nM?
Result string: 1

Query string: Is the reported IC50 for CN(C(=O)CCCOc1ccc(N)c(CN2CC(=O)NC2=O)c1)C1CCCCC1 strictly below 100 nM?
Result string: 0

Query string: Is the reported IC50 for Br.CN(C(=O)CCCOc1ccc2c(c1)CN(CC(=O)N1CCCCC1)C(N)=N2)C1CCCCC1 strictly below 100 nM?
Result string: 1

Query string: Is the reported IC50 for CN(C(=O)CCCOc1ccc2c(c1)CN1CC(=O)N(CN3CCOCC3)C1=N2)C1CCCCC1 strictly below 100 nM?
Result string: 1

---

Tested on: Canis familiaris
test protocol: Pharmacokinetic parameter AUC was determined in dog after oral administration of 17b
Format: ADME, organism-based, Canis lupus familiaris
reported conditions: in vivo
readout name: AUC (ng·h/mL)
Form entry: value (ng·h/mL) — number only.

Query string: Consider the compound shown here: CN(C(=O)CCCOc1ccc2c(c1)CN1CC(=O)NC1=N2)C1CCCCC1 [LIXAZINONE] What is its recorded AUC?
Result string: 268
